Target Or Test System: catalytic domain of human Bub1 (amino acids 704-1085) (Homo sapiens)
Construct: catalytic domain of human Bub1 (amino acids 704-1085); His6 (N); made in house; host or cells: Hi5 insect cells
Sequence (O43683 704-1085): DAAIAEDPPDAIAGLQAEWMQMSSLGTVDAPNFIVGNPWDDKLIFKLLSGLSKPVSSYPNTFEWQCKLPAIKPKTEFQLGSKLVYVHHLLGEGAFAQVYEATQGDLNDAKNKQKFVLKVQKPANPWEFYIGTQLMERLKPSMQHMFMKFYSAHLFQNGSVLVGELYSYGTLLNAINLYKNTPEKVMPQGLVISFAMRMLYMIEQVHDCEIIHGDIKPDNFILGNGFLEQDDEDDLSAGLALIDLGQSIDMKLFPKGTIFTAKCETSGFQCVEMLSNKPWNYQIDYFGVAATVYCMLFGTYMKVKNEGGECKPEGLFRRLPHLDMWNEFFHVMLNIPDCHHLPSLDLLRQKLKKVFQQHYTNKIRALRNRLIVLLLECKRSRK
Assay Protocol: Bub1 kinase assay (TR-FRET)
Type: biochemical
Settings: TR-FRET; ATP 10 μM, peptide substrate 1 μM; 60 min at 22° C.; average or median if tested more than once; read-out: Inhibition of Bub1 kinase IC50
pIC50: −log10 of the molar value.
Measurement Label: pIC50

| Molecule | Measurement Label | Reading |
| --- | --- | --- |
| COCCOc1cnccc1-c1[nH]c2c(c1Nc1ccccc1)C(=O)CN(C(=O)OC)C2 [Example 248] | pIC50 | 8.30 |

[I] O=C1CN(S(=O)(=O)C(F)F)Cc2[nH]c(-c3ccncc3)c(Nc3ccccc3)c21 [Example 68]
[II] CC(C)(C)NC(=O)N1CC(=O)c2c([nH]c(-c3ccncc3)c2Nc2ccccc2)C1 [Example 85]
[III] COc1cnccc1-c1[nH]c2c(c1Nc1ccccc1)C(=O)CSC2 [Example 39]
Ranking field: pIC50; order: falling. Response format: the labels, sorted as the prompt asks. I, II, III
